assay.procedure: 8-day repeat-dose study, tolerability (blood chemistry, hematology, adverse events) in tumor-bearing dogs
Format: in vivo, dog
particulars: Dog 1; Post: 30 min after last injection on day 8; 10 mg s.c. once daily for 8 days
Where a SMILES comes first, the peptide text is derived from it. [ ]: non-standard residue; d: D form. Hyp = O=C(O)[C@@H]1C[C@@H](O)CN1
measurement.type: Chloride (mmol/L)
Write down the numeric answer in mmol/L and omit the unit.

So what does the record say about Chloride for CC(C)[C@@H]1NC(=O)[C@@H]2C[C@@H](O)CN2C(=O)[C@H]([C@@H](C)O)NC(=O)[C@H](CCCCN)NC(=O)[C@H](CCC(=O)O)NC(=O)[C@H](CC(N)=O)NC(=O)CNC(=O)[C@@H]2C[C@@H](O)CN2C(=O)[C@H](CC(N)=O)NC1=O [AFPep] (cyclo(EKT[Hyp]VN[Hyp]GN)) ?
111
